Attribute: Cynomolgus EpCAM/Control
- target: T1, cynomolgus EpCAM protein (cynomolgus, UniProt Q1WER1 27-265 (rhesus entry), limits assumed, biotinylated in the Octet assays (site not stated))
- T1 construct: also called cy EpCAM; biotinylated cynomolgus EpCAM protein
- T1 sequence: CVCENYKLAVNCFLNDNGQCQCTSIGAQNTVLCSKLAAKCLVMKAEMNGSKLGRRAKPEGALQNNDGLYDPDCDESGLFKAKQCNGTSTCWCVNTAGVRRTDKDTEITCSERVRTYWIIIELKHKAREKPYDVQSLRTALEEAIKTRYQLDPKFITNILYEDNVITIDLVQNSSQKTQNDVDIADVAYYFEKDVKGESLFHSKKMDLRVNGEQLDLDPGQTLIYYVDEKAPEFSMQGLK
- method_summary: colorimetric ELISA
property_label: Cynomolgus EpCAM/Control

1) EPL74 (VHH) VHH: QVQLQESGGGLVQAGGSLRLSCAASGSIFGINAMGWYRQAPGKQRESVAFITIGGNTNYLDSVKGRFTISRDNAKNTVYLQMNGLKPEDTAVYYCNTNPPLILTAGGLYWGQGTQVTVSS = 5
2) EPL10 (VHH) VHH: QVQLQESGGGLVQAGGSLRLSCAASGSVFRANVMGWYRQAPGKQHELVARIDPGGTTTYADPVKGRFTISRDNAKKTVYLQMNSLKPDDTAVYYCNAIILLSGGPKDYWGQGTQVTVSS = 9
3) EPL78 (VHH) VHH: QVQLQESGGGLVQPGGSLRLSCATSANRFNINVMGWYRQAPGQQRELVATINIGGSTDYADSVKGRFTISRDNAKNTVYLQLSDLKPEDTAVYYCNVKLRVSGPTGPNVYWGQGTQVTVSS = 11
4) EPL20 (VHH) VHH: QVQLQESGGGLVQAGGSLKLSCAASGNVFRAATMAWYRQAPEKQREMVATIASGGTTNYADFVKGRFTISRDNAKNTVYLQMNTLKPEDTAVYYCNAGYLTSLGPKNYWGQGTQVTVSS = 4
